- study target: CXCR3-PK1 (Homo sapiens)
- Construct: expressed in transfected cells; host or cells: HEK293 cells stably expressing beta-gal enzyme acceptor (PathHunter, DiscoveRx), transiently transfected
- test method notes: β-arrestin 2 recruitment assay (PathHunter, DiscoveRx), CXCR3-PK1 construct
- Type: cell-based
- condition parameters: HEK293-T cells, PathHunter, CXCR3-PK1; two to three experiments in triplicate

[
  {
    "smi": "N[C@@H](CCCCNC(=O)[C@@H]1Cc2ccccc2CN1C(=O)CCC(=O)c1ccccc1)C(=O)NCC(c1ccccc1)c1ccccc1.O=C(O)C(F)(F)F",
    "CXCR3-PK1 pEC50 ± SEM": 6.80
  },
  {
    "smi": "N[C@@H](CCCCNC(=O)[C@@H]1Cc2ccccc2CN1C(=O)CCCC(=O)c1ccccc1)C(=O)NCC(c1ccccc1)c1ccccc1.O=C(O)C(F)(F)F",
    "CXCR3-PK1 pEC50 ± SEM": 6.73
  },
  {
    "smi": "CC(C)(C)OC(=O)N[C@H](CCCCNC(=O)[C@@H]1Cc2ccccc2CN1C(=O)CCC(=O)c1ccccc1)C(=O)NCC(c1ccccc1)c1ccccc1",
    "CXCR3-PK1 pEC50 ± SEM": 6.95
  },
  {
    "smi": "CC(C)(C)OC(=O)N[C@@H](CCCCNC(=O)[C@@H]1Cc2ccccc2CN1)C(=O)NCC(c1ccccc1)c1ccccc1",
    "CXCR3-PK1 pEC50 ± SEM": 6.50
  },
  {
    "smi": "CC(C)(C)OC(=O)N[C@@H](CCCCNC(=O)[C@@H]1Cc2ccccc2CN1C(=O)CCCC(=O)c1ccccc1)C(=O)NCC(c1ccccc1)c1ccccc1",
    "CXCR3-PK1 pEC50 ± SEM": 6.84
  },
  {
    "smi": "CC(C)(C)OC(=O)NCCCC[C@@H](NC(=O)[C@@H]1Cc2ccccc2CN1C(=O)CCC(=O)c1ccccc1)C(=O)NCC(c1ccccc1)c1ccccc1",
    "CXCR3-PK1 pEC50 ± SEM": 6.63
  }
]

----------
Entries annotated with measured Emax
- study target: CXCR3-PK2 (Homo sapiens, UniProt P49682)
- Construct: expressed in transfected cells
- Sequence (P49682 1-368): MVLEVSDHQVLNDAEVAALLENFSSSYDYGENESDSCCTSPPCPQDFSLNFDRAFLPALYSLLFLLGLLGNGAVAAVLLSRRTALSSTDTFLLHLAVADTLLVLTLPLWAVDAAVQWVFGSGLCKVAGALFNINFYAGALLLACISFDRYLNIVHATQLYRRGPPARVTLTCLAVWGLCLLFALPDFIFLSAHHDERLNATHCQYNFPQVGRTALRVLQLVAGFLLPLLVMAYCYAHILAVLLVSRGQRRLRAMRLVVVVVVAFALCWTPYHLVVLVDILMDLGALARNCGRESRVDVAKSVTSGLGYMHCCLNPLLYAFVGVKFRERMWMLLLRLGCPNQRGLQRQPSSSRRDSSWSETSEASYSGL
- test method notes: β-arrestin 2 recruitment assay (PathHunter, DiscoveRx), CXCR3-PK2 construct
- Type: cell-based
- condition parameters: % of CXCL11 mediated effect; CXCR3-PK2; read-out: CXCR3-PK2 efficacy (%) (converted)
measured quantity: Emax (%)

[
  {
    "molecule": "N[C@@H](CCCCNC(=O)[C@@H]1Cc2ccccc2CN1C(=O)CCC(=O)c1ccccc1)C(=O)NCC(c1ccccc1)c1ccccc1.O=C(O)C(F)(F)F [Compound 25, 2,2,2-trifluoroacetate]",
    "unit label": "%",
    "numeric result": 27
  },
  {
    "molecule": "CC(=O)CCC(=O)N1Cc2ccccc2C[C@H]1C(=O)NCCCC[C@H](NC(=O)OC(C)(C)C)C(=O)NCC(c1ccccc1)c1ccccc1",
    "unit label": "%",
    "numeric result": 63
  },
  {
    "molecule": "CC(C)(C)OC(=O)N[C@@H](CCCCNC(=O)[C@@H]1Cc2ccccc2CN1)C(=O)NCC(c1ccccc1)c1ccccc1",
    "unit label": "%",
    "numeric result": 79
  },
  {
    "molecule": "CC(C)(C)OC(=O)N[C@@H](CCCCNC(=O)[C@@H]1Cc2ccccc2CN1C(=O)CCC(=O)c1ccccc1)C(=O)NCC(c1ccccc1)c1ccccc1",
    "unit label": "%",
    "numeric result": 66
  },
  {
    "molecule": "N[C@@H](CCCCNC(=O)[C@@H]1Cc2ccccc2CN1C(=O)CCCC(=O)c1ccccc1)C(=O)NCC(c1ccccc1)c1ccccc1.O=C(O)C(F)(F)F [Compound 26, 2,2,2-trifluoroacetate]",
    "unit label": "%",
    "numeric result": 91
  },
  {
    "molecule": "N[C@H](CCCCNC(=O)[C@@H]1Cc2ccccc2CN1C(=O)CCC(=O)c1ccccc1)C(=O)NCC(c1ccccc1)c1ccccc1.O=C(O)C(F)(F)F [Compound 35, 2,2,2-trifluoroacetate]",
    "unit label": "%",
    "numeric result": 79
  },
  {
    "molecule": "CC(C)(C)OC(=O)N[C@@H](CCCCNC(=O)[C@@H]1Cc2ccccc2CN1C(=O)CCc1ccccc1)C(=O)NCC(c1ccccc1)c1ccccc1",
    "unit label": "%",
    "numeric result": 29
  },
  {
    "molecule": "CC(C)(C)OC(=O)N[C@H](CCCCNC(=O)[C@@H]1Cc2ccccc2CN1C(=O)CCC(=O)c1ccccc1)C(=O)NCC(c1ccccc1)c1ccccc1",
    "unit label": "%",
    "numeric result": 88
  },
  {
    "molecule": "CC(C)(C)OC(=O)NCCCC[C@@H](NC(=O)[C@@H]1Cc2ccccc2CN1C(=O)CCC(=O)c1ccccc1)C(=O)NCC(c1ccccc1)c1ccccc1",
    "unit label": "%",
    "numeric result": 30
  },
  {
    "molecule": "NCCCC[C@@H](NC(=O)[C@@H]1Cc2ccccc2CN1C(=O)CCC(=O)c1ccccc1)C(=O)NCC(c1ccccc1)c1ccccc1.O=C(O)C(F)(F)F [Compound 47, 2,2,2-trifluoroacetate]",
    "unit label": "%",
    "numeric result": 198
  },
  {
    "molecule": "N[C@@H](CCCCNC(=O)[C@@H]1Cc2ccccc2CN1)C(=O)NCC(c1ccccc1)c1ccccc1.O=C(O)C(F)(F)F.O=C(O)C(F)(F)F [Compound 28, 2,2,2-trifluoroacetate]",
    "unit label": "%",
    "numeric result": 85
  }
]
